- Test system: B cell line, TNFa signaling counterscreen reporter
- assay info: TNFa signaling inhibitors in B cell line, dose response, counter-screen (AID 1259334);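 note: cells stimulated with TNFa after compound preincubation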
The source made the active and inactive calls. Cut-off read from the data, not from the text of the source: active = AC50 below about 11 µM. Peptide text beside a SMILES is read from it. * marks the point of attachment. Cbz = O=C(OCc1ccccc1)*
Thanks in advance; please answer with one of these: label 1 = active, label 0 = inactive

Record request — test call for `c1ccc(OCCSc2nnc3sc4ccccc4n23)cc1` label 1

Record request — test call for `O=C1c2ccccc2C(=O)C1c1ccc2ccccc2n1` label 1

Record request — test call for C1CCC(C(CC2CCCCN2)C2CCCCC2)CC1 (stereo not given) label 1

Record request — test call for `COc1cccc(S(=O)(=O)N(C)C[C@H]2OCc3ccccc3-c3c(n(C)c4ccccc34)C(=O)N([C@@H](C)CO)C[C@@H]2C)c1` label 0

Record request — test call for `c1ccc(-c2nnc(-c3ccccn3)nn2)nc1` label 1

Record request — test call for `COc1ccc(S(=O)(=O)Nc2ccc3c(c2)C(=O)N([C@@H](C)CO)C[C@@H](C)[C@@H](CN(C)Cc2ccc(C(F)(F)F)cc2)OCCCC[C@@H](C)O3)cc1` label 0

Record request — test call for `NCCOc1ccc(C23CC4CC(CC(C4)C2)C3)cc1` label 1

Record request — test call for CC1CC(C)CC(C)C(O)C(C#N)=CC=CCC(C2CCCC2C(=O)O)OC(=O)CC(O)C(C)C1 (stereo not given) label 1

Record request — test call for COc1ccc(CN(CCC(c2ccc(F)cc2)C2CCOC(C)(C)C2)C(=O)c2ccco2)cc1 (stereo not given) label 1

Record request — test call for CC1(C)C(=O)C=C[C@@]2(C)C1C(=O)C(=O)[C@]1(C)C2CC[C@@]2(C)[C@H](c3ccoc3)C[C@H]3O[C@]321 (stereo not given in full) label 1

Record request — test call for `C[C@@H]1C[C@@H]([C@H](O)CC2CC(=O)NC(=O)C2)C(=O)[C@@H](C)C1` label 1

Record request — test call for `Oc1c(Cl)cc(Cl)cc1Sc1cc(Cl)cc(Cl)c1O` label 1

Record request — test call for CSC1SCC2C(=O)N(C)C(C(C)C)C(=O)OCC(NC(=O)c3cnc4ccccc4n3)C(=O)NC(C)C(=O)N(C)C1C(=O)N(C)C(C(C)C)C(=O)OCC(NC(=O)c1cnc3ccccc3n1)C(=O)NC(C)C(=O)N2C (stereo not given) label 1

Record request — test call for CC(C)C[C@@H](C=O)NC(=O)[C@H](CC(C)C)NC(=O)[C@H](CC(C)C)NC(=O)OCc1ccccc1 (Cbz-Leu-Leu-Leu-aldehyde) label 1

Record request — test call for NC(c1ccccc1)c1csc(NC(=O)Nc2cccc(C(F)(F)F)c2)n1 (stereo not given) label 1

----------
What AC50 was measured for each of the following?
- Test system: B cell line, TNFa signaling counterscreen reporter
- assay info: TNFa signaling inhibitors in B cell line, dose response, counter-screen (AID 1259334);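 note: cells stimulated with TNFa after compound preincubation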

The following molecules have reported results that may help.
{"molecule": "Cc1noc(C)c1S(=O)(=O)Nc1ccc2c(c1)CC(=O)N([C@@H](C)CO)C[C@@H](C)[C@@H](CN(C)Cc1ccc(Oc3ccccc3)cc1)O2", "tgt": "B cell line, TNFa signaling counterscreen reporter", "AC50": "7.01 µM"}
{"molecule": "Cc1cc(C(=O)COC(=O)c2ccco2)c(C)n1Cc1ccco1", "tgt": "B cell line, TNFa signaling counterscreen reporter", "AC50": "0.111 µM"}
{"molecule": "COc1ccc(/C=C\\c2nc(=O)c3ccccc3o2)cc1", "tgt": "B cell line, TNFa signaling counterscreen reporter", "AC50": "9.73 µM"}

Form field AC50, entry CC(C)Cc1ccc(C(C)/C=C2/CCC(CN3CCCCC3)C2=O)cc1 (centres undefined) : 8.62 µM

----------
- Tested on: B cell line, TNFa signaling counterscreen reporter
- assay info: TNFa signaling inhibitors in B cell line, dose response, counter-screen (AID 1259334);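 note: cells stimulated with TNFa after compound preincubation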
Active and inactive are the calls of the source. No stated cut-off is given here; in the data, active means AC50 below about 11 µM.
Thanks in advance; please answer with one of these: active, inactive

{"molecule": "COC(=O)C1=C(C)NC(C)=C(C(=O)OCCCN2CCC(c3ccccc3)(c3ccccc3)CC2)[C@H]1c1cccc([N+](=O)[O-])c1", "tgt": "B cell line, TNFa signaling counterscreen reporter", "label value": "active"}
{"molecule": "CCCNC(=O)N1[C@@H](C#N)[C@H](c2ccc(-c3cccc(OC)c3)cc2)[C@@H]1CO", "tgt": "B cell line, TNFa signaling counterscreen reporter", "label value": "inactive"}
{"molecule": "CC(C)=CCc1c2c(c3occ(-c4ccc(O)c(O)c4)c(=O)c3c1O)C=CC(C)(C)O2", "tgt": "B cell line, TNFa signaling counterscreen reporter", "label value": "active"}
{"molecule": "Cc1ccnc(NC(=O)c2ccc(OCC3CCCO3)cc2)c1 (stereo not given)", "tgt": "B cell line, TNFa signaling counterscreen reporter", "label value": "active"}

Now for a further molecule.
Record request — test call for `C[C@H](CO)N1C[C@H](C)[C@@H](CN(C)Cc2ccc(Oc3ccccc3)cc2)OCc2ccccc2-c2ccccc2C1=O` active

----------
What AC50 was measured for each of the following?
- System: B cell line, TNFa signaling counterscreen reporter
- assay info: TNFa signaling inhibitors in B cell line, dose response, counter-screen (AID 1259334);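 note: cells stimulated with TNFa after compound preincubation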

The following compounds have reported results that may help.
{"compound": "O=C1/C(=C/c2ccccc2)C[C@@]2(O)C3Cc4ccc(O)c5c4[C@@]2(CCN3CC2CC2)[C@H]1O5", "assay result": "1340 nM"}
{"compound": "C=C1C(=O)OC2CC1C(O)CC(C)=CCCC(C)=CC(O)CC2C (stereo not drawn)", "assay result": "2270 nM"}

Shift focus to the following entry.
Form field AC50, entry `C[C@H](CO)N1C[C@H](C)[C@H](CN(C)S(=O)(=O)c2ccc(Cl)cc2)Oc2c(NC(=O)Nc3ccc(F)cc3)cccc2C1=O` : 4980 nM

----------
- Test system: B cell line, TNFa signaling counterscreen reporter
- assay info: TNFa signaling inhibitors in B cell line, dose response, counter-screen (AID 1259334); in the data active = AC50 below about 11 µM;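 note: cells stimulated with TNFa after compound preincubation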
Thanks in advance; please answer with one of these: Yes (active), No (inactive)

{"compound": "CS(=O)(=O)c1ccc(C(=O)OCC(=O)NC(=O)C2COc3ccccc3O2)cc1[N+](=O)[O-] (stereo unspecified)", "label value": "Yes"}
{"compound": "O=[N+]([O-])c1ccc(N2CCOCC2)c2c1no[n+]2[O-]", "label value": "Yes"}

Record request — test call for COCC(C)n1c(C)cc(C(=O)COC(=O)c2cccn2C)c1C (stereo unspecified) Yes

Record request — test call for `COc1ccc(S(=O)(=O)Nc2ccc3c(c2)C(=O)N([C@H](C)CO)C[C@H](C)[C@@H](CN(C)Cc2ccc(C(F)(F)F)cc2)OCCCC[C@@H](C)O3)cc1` Yes

Record request — test call for C[C@@H]1O[C@@H](O[C@H]2C[C@@H](O)[C@]3(CO)[C@H]4[C@H](O)C[C@]5(C)[C@@H](C6COC(=O)C6)CC[C@]5(O)[C@@H]4CC[C@]3(O)C2)[C@H](O)[C@H](O)[C@H]1O (stereo partly specified) Yes

Record request — test call for `O=C(COC(=O)c1ccccc1C(=O)c1ccc(Cl)c([N+](=O)[O-])c1)NC1CC1` Yes

----------
- Tested on: B cell line, TNFa signaling counterscreen reporter
- assay info: TNFa signaling inhibitors in B cell line, dose response, counter-screen (AID 1259334);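 note: cells stimulated with TNFa after compound preincubation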
The source made the active and inactive calls. Cut-off read from the data, not from the text of the source: active = AC50 below about 11 µM.
Thanks in advance; please answer with one of these: active, inactive

Answered cases to consult:
{"molecule": "Cc1noc(C)c1S(=O)(=O)N(C)C[C@H]1OCc2ccccc2-c2c(n(C)c3ccccc23)C(=O)N([C@@H](C)CO)C[C@H]1C", "label value": "inactive"}
{"molecule": "N#Cc1c(Br)n(C2OC(CO)C(O)C2O)c2ncnc(N)c12 (stereo not given)", "label value": "active"}
{"molecule": "CCN1C(=O)C(CC(=O)Nc2ccc(F)cc2)N(Cc2ccco2)C1=S (stereo not given)", "label value": "inactive"}
{"molecule": "O=C(C1CCOCC1)N1CC(=O)N2[C@H](C1)[C@H](c1ccc(C#CCc3ccccc3)cc1)[C@@H]2CO", "label value": "active"}
{"molecule": "CC1CC(C)(C)Nc2ccc(OC(=O)c3ccco3)cc21 (stereo not given)", "label value": "active"}

Record request — test call for CC1OC(CC(=O)O)CC2=C1C(=O)c1c(O)cccc1C2=O (stereo not given) active

Record request — test call for `COc1ccc2c3c(n(C)c2c1)[C@H](CO)N(C(=O)Nc1ccc(F)cc1)CC31CCN(C(=O)c2ccc3c(c2)OCO3)CC1` inactive

Record request — test call for `COc1ccc(S(=O)(=O)Nc2ccc3c(c2)C(=O)N([C@@H](C)CO)C[C@H](C)[C@@H](CN(C)Cc2ccc(C(F)(F)F)cc2)OCCCC[C@@H](C)O3)cc1` active

Record request — test call for `COCC(=O)N1[C@H](C#N)[C@H](c2ccc(C#Cc3ccccc3F)cc2)[C@H]1CO` active

Record request — test call for `O=C(COC(=O)c1ccccc1)c1ccc2c(c1)OCCO2` active

Record request — test call for `CNc1c2cccc(C)c2nc2c(C(=O)NCCN(C)C)cccc12` active

Reference source for all entries: PubChem BioAssay AID1259334
